Target: T1, human AGR2 WT (human, UniProt O95994 21-175)
T1 construct: also called hAGR2; recombinant human AGR2
T1 sequence: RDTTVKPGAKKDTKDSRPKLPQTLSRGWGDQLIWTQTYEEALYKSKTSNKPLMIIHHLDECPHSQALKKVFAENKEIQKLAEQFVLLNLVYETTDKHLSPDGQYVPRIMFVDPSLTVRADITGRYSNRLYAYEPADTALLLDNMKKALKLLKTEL
Experiment: kinetics, antibody immobilized, hAGR2 soluble analyte; instrument not stated
Catalogue of koff values
Quick reminder: number only, in s⁻¹, skip the unit.

Record excerpt, results attached:
[
  {
    "binder": "TH-104 IgG1-LALA humanized monoclonal antibody (antibody, V domains shown) VH: QVQLVQSGSELKKPGASVKVSCKTSGYVFSRSWMNWVRQAPGQGLEWIGWIYPGDGDTNYNGKFKDRFVLSADKSVSTVYLQISSLKAEDTAVYFCARGGYDGSPWLSYWGQGTLVTVSS VL: DIQMTQSPSSLSASVGDRVTITCKASQDINSYLSWFQQKPGKAPKTLIYRANRLVDGVPSRFSGSGSGQDFTLTISSLQPEDIATYYCLQYDEFPFTFGGGTKVEIKR",
    "reported": "8.23e-06"
  },
  {
    "binder": "TH-101 IgG1-LALA humanized monoclonal antibody (antibody, V domains shown) VH: QVQLVQSGAEVKKPGASVKVSCKTSGYVFSRSWMNWVRQAPGQGLEWIGWIYPGDGDTNYNGKFKDRVTLTADKSTSTVYMELSSLRSEDTAVYFCARGGYDGSPWLSYWGQGTLVTVSS VL: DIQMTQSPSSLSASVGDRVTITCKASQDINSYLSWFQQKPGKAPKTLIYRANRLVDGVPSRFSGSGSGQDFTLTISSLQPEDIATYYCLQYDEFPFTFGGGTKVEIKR",
    "reported": "3.52e-05"
  },
  {
    "binder": "TH-115 IgG1-LALA humanized monoclonal antibody (antibody, V domains shown) VH: QVQLLESGGGLVKPGGSLRLSCATSGYVFSRSWMNWIRQAPGQGLEWIGWIYPGDGDTNYNGKVKDRFTLSADKAKNSVYLQMNSLRAEDTAVYFCARGGYDGSPWLSYWGQGTLVTVSS VL: EIVLTQSPDFQSVTPKEKVTITCKASQDINSYLSWFQQKPDQSPKTLIYRANRLVDGVPSRFSGSGSGQDFTLTINSLEAEDAATYYCLQYDEFPFTFGGGTKVEIKR",
    "reported": "1.94e-05"
  }
]

Input TH-109 IgG1-LALA humanized monoclonal antibody (antibody, V domains shown) VH: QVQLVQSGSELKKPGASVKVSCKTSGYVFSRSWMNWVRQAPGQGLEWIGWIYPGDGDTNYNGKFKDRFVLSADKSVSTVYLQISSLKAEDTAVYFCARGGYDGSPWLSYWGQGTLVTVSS VL: EIVLTQSPATLSLSPGERATLSCKASQDINSYLSWFQQKPGQAPRTLIYRANRLVDGIPARFSGSGSGQDFTLTISSLEPEDFAVYYCLQYDEFPFTFGGGTKVEIKR . Output koff: 8.74e-06

FYI, the data here is from patent US20260193331A1.
